Test system: NCI-H226 lung
Assay: NCI tumour cell line growth inhibition, 48 h

Entry smiles	TGI
Cc1ccc(/C=C2\CCCCCC2=O)cc1	> 100 µM
CC(=O)[C@]12OC(=O)C3=C1[C@H](CC[C@@H]3C)[C@@H](C)C[C@H]2C=C(C)C	16 µM
Cc1ncc([N+](=O)[O-])n1CCNC(=O)Cn1ccnc1[N+](=O)[O-]	> 100 µM

---

System: OVCAR-4 ovarian
Experiment: NCI tumour cell line growth inhibition, 48 h
Each item that follows carries a reported GI50.

Molecule	System	GI50
CNC12C3C4C1C1C2C3C41C(=O)N[C@H](C(=O)N(C)[C@H](C[C@@H](OC(C)=O)c1nc(C(=O)N[C@@H](Cc2ccccc2)C[C@H](C)C(=O)OC)cs1)C(C)C)C1CC1 (stereo partly specified)	OVCAR-4 ovarian	1.1 µM
CC(=O)[O][Hg][CH2]C1(C)COC(C)([CH2][Hg][O]C(C)=O)CO1 (stereo unspecified)	OVCAR-4 ovarian	26.4 µM
CC(C)c1ccc(/C=N/N=C(N)N)cc1	OVCAR-4 ovarian	10.3 µM
CCCC(=O)O[C@]1(C)CC[C@@H]2[C@H]3[C@@H]1[C@@H]1C/C(C)=C\CC[C@](C)(OC(=O)[C@@H]2C)[C@H]3O1	OVCAR-4 ovarian	52.9 µM
O=C(NCCNC(=O)c1ccc(F)cc1)Nc1ccc(-n2cc(-c3ccncc3)c(-c3ccc(Cl)c(O)c3)n2)cc1	OVCAR-4 ovarian	0.585 µM
O=c1oc2c(cc1-c1ccccc1)C(O)Oc1ccccc1-2 (stereo unspecified)	OVCAR-4 ovarian	14.8 µM

Data provenance is PubChem BioAssay (NCI).
